Field: IC50. Provide a value for each of the compounds that follow.
Target: MKLP-2 (RabK6) (Homo sapiens, UniProt O95235, S2A)
Construct: Expression clones for MKLP-21-519 (coding for residues 1 to 519) were obtained as follows; His-tag; made in house; host or cells: E. coli BL21(DE3)
Sequence (O95235 1-519 S2A limits assumed): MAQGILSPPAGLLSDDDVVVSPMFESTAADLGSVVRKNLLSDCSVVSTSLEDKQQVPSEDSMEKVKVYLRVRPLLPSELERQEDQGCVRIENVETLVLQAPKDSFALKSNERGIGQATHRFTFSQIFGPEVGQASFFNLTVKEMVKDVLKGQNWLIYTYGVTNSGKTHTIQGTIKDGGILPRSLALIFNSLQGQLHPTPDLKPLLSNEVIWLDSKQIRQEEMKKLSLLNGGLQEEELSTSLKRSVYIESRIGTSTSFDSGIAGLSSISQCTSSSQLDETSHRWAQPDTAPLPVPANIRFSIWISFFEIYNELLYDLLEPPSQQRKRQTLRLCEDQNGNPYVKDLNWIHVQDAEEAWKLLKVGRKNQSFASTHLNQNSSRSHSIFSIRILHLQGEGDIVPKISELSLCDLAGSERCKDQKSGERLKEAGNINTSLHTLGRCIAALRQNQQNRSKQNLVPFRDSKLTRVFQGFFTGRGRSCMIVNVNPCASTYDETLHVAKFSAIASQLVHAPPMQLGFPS
Assay: biochemical

N#C/C(=C\c1cccnc1)c1c[nH]c2ccc(O)cc12 = < 5 µM
COc1ccc2[nH]cc(/C(C#N)=C/c3cnn(C)c3)c2c1 = > 50 µM
N#C/C(=C\c1cccc([N+](=O)[O-])c1)c1c[nH]c2ccccc12 = > 50 µM
COc1ccc2[nH]cc(/C(C#N)=C/c3ccc[n+](C)c3)c2c1 = 10 to 20 µM

Pending compound:
Enquiry: Fill blank: measured IC50 of the compound COc1ccc2[nH]cc(/C(C#N)=C/c3ccc(F)nc3)c2c1 is ____.
Return: < 5 µM
